# inhibition at 0.1 µM values compiled below
- System Name: UniProt Q9Y5Y9
- Sequence (Q9Y5Y9 whole entry): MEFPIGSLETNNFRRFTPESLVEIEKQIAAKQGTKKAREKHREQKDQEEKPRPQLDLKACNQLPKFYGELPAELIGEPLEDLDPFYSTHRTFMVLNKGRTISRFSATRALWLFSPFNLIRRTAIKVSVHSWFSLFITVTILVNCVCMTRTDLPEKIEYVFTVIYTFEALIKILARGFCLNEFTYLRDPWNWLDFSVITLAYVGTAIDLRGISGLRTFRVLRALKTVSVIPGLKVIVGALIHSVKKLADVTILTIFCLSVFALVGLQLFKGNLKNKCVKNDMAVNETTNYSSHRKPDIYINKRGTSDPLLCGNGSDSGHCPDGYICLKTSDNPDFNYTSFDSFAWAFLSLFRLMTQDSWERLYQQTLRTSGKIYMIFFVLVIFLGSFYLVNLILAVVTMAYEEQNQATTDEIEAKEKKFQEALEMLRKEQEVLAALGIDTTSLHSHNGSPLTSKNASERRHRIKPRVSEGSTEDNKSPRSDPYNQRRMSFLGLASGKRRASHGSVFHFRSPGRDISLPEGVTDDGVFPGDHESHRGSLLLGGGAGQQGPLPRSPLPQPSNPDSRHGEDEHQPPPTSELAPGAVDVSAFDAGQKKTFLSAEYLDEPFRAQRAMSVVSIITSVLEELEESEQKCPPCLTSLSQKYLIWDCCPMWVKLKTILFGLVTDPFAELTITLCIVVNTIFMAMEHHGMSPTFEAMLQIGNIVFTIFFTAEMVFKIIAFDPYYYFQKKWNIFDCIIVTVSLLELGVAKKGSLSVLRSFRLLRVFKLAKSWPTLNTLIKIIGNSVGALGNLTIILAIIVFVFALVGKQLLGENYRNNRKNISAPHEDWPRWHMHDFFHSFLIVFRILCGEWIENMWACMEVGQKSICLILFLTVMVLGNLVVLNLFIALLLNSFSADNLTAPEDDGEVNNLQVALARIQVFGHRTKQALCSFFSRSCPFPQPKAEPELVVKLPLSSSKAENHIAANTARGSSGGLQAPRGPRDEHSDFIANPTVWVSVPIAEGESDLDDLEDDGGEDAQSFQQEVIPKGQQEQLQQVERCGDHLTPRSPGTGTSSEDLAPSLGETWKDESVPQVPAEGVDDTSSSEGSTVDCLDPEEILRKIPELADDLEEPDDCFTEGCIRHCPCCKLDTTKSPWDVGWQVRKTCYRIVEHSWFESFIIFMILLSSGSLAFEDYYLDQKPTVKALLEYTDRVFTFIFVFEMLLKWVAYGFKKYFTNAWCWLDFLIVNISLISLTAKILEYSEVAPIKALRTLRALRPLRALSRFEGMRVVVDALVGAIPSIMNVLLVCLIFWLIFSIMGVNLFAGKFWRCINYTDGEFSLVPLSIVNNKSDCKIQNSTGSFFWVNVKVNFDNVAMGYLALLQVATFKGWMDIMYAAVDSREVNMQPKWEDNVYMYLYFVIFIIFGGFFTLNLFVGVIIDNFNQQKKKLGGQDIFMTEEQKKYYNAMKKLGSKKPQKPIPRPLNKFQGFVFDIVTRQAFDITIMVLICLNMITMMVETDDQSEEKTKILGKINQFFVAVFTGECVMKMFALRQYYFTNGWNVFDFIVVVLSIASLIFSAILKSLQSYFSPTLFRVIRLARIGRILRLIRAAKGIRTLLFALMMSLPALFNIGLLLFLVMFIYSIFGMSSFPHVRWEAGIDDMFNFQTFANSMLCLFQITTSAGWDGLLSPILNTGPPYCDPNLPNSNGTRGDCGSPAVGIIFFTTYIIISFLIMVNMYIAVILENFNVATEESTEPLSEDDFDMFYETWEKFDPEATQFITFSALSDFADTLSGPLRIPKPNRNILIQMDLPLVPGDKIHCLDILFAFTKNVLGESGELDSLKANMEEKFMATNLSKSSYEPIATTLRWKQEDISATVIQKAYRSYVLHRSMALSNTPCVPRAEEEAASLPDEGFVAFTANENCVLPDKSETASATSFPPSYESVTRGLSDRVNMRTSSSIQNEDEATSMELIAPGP
- Assay Method Text: Compound inhibition activity on human NaV1.8 ion channel in HEK293 cells (whole-cell patch clamp)
- Type: cell-based
- Test Parameters: 100 nm concentration; HEK293 cells, resting protocol; read-out: Inhibition ratio of compounds against Nav1.8 (Activity of inhibition)

Compound | Recorded Endpoint | Test Result
Cc1cc(F)ccc1Oc1cc(C2CC2)c(C(F)(F)F)cc1C(=O)Nc1cnnc(OC[C@H](O)CO)c1 | inhibition at 0.1 µM | 20 to 50%
Cc1cc(F)ccc1Oc1cc(C2CC2)c(C(F)(F)F)cc1C(=O)Nc1ccc(F)c(C(F)CN)c1 (centres unmarked) | inhibition at 0.1 µM | 50 to 80%
Cc1cc(F)ccc1Oc1cc(C2CC2)c(C(F)(F)F)cc1C(=O)Nc1ccc(F)c(C(C)CC(O)CNC(C)(C)C)c1 (centres unmarked) | inhibition at 0.1 µM | 50 to 80%
Cc1cc(F)ccc1Oc1cc(C2CC2)c(C(F)(F)F)cc1C(=O)Nc1ccc(F)c(OCc2ncc[nH]2)c1 | inhibition at 0.1 µM | 50 to 80%
Cc1cc(F)ccc1Oc1cc(C2CC2)c(C(F)(F)F)cc1C(=O)Nc1ccc(F)c(OCC(O)CNC2(C(=O)O)CC2)c1 (centres unmarked) | inhibition at 0.1 µM | 20 to 50%

Lab note: next compound to report on.
input: Give inhibition at 0.1 µM for the following compound: Cc1cc(F)ccc1Oc1cc(C2CC2)c(C(F)(F)F)cc1C(=O)Nc1ccc(F)c(OCC(O)CNc2ncc[nH]2)c1 (centres unmarked)
output: 50 to 80%

---

- System Name: UniProtKB Q14524
- Sequence (Q14524 whole entry): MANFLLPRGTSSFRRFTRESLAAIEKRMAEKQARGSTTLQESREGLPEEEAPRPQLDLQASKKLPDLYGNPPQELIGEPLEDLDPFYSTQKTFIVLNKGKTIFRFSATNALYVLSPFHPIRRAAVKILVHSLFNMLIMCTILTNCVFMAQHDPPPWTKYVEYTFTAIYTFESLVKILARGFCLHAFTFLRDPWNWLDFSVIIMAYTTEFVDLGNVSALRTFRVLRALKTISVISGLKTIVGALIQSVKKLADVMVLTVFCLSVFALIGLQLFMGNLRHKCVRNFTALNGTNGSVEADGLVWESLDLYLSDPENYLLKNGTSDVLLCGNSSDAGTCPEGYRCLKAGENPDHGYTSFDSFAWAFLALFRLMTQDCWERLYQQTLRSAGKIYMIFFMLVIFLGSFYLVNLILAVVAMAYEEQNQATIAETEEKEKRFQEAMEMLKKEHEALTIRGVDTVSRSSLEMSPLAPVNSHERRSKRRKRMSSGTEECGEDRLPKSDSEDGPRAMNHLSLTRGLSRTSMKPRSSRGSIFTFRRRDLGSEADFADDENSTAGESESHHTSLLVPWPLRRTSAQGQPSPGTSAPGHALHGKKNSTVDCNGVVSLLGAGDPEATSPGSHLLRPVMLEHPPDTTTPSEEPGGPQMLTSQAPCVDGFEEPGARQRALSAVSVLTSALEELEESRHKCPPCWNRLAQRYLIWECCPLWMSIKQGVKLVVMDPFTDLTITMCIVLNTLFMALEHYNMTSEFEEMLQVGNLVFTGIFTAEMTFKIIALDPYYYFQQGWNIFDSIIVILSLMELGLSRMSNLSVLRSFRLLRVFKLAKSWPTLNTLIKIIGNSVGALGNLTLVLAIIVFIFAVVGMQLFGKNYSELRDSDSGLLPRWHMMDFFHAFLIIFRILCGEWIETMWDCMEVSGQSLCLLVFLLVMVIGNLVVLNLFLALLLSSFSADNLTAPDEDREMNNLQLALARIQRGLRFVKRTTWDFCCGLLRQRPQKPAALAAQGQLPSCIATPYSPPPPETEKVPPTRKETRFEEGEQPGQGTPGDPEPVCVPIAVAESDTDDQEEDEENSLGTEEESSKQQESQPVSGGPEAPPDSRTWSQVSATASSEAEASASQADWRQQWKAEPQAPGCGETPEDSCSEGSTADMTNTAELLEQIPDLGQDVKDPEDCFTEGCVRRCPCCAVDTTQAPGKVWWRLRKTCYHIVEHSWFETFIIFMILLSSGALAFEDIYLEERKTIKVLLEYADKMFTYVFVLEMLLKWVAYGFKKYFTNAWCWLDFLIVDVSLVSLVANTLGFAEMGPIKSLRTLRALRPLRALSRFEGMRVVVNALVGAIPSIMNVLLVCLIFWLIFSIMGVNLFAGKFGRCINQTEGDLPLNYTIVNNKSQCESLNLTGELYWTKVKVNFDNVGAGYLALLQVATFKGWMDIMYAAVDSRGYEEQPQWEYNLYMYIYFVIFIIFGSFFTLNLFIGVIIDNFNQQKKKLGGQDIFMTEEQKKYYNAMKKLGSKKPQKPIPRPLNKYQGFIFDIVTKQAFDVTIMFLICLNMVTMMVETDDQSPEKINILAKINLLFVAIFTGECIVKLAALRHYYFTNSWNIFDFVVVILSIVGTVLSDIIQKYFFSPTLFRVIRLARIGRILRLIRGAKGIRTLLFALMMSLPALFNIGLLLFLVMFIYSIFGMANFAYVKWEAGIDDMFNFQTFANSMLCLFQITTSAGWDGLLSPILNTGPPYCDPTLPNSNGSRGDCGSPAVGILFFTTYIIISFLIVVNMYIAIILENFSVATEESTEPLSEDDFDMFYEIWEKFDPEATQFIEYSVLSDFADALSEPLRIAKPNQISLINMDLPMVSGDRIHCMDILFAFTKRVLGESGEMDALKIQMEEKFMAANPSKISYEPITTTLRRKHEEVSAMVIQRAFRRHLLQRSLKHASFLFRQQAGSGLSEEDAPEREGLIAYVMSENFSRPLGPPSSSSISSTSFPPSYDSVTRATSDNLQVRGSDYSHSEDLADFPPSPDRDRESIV
- Assay Method Text: Selectivity test for Nav ion channel subtypes: NaV1.5 (HEK293, patch clamp)
- Assay type: cell-based
- Test Parameters: 1 uM; HEK293 cells
Recorded Endpoint: Inhibition ratio on Nav1.5 (%)
Numeric answer only, unit % assumed.

Molecule | Scale Unit | Inhibition ratio on Nav1.5
Cc1cc(F)ccc1Oc1cc(C(F)(F)F)c(Cl)cc1C(=O)Nc1ccnc(OC[C@H](O)CO)c1 [Example 114] | % | 5.9
Cc1cc(F)ccc1Oc1cc(C(F)(F)F)ccc1C(=O)Nc1ccn(COP(=O)(O)O)c(=O)c1 [VX-150, reference compound] | % | 15.4
Cc1cc(F)ccc1Oc1cc(C(F)(F)F)c(Cl)cc1C(=O)Nc1ccc(F)c(OC[C@H](O)CNC(=O)CO)c1 [Example 117] | % | 5.0

Lab note: next molecule to report on.
input: Give Inhibition ratio on Nav1.5 for the following molecule: Cc1cc(F)ccc1Oc1cc(C2CC2)c(C(F)(F)F)cc1C(=O)Nc1ccc(F)c(OC[C@H](O)CNC(=O)CO)c1 [Example 119]
output: 2.8

---

- System Name: hERG ion channels (Homo sapiens (Human))
- Sequence (Q12809 whole entry): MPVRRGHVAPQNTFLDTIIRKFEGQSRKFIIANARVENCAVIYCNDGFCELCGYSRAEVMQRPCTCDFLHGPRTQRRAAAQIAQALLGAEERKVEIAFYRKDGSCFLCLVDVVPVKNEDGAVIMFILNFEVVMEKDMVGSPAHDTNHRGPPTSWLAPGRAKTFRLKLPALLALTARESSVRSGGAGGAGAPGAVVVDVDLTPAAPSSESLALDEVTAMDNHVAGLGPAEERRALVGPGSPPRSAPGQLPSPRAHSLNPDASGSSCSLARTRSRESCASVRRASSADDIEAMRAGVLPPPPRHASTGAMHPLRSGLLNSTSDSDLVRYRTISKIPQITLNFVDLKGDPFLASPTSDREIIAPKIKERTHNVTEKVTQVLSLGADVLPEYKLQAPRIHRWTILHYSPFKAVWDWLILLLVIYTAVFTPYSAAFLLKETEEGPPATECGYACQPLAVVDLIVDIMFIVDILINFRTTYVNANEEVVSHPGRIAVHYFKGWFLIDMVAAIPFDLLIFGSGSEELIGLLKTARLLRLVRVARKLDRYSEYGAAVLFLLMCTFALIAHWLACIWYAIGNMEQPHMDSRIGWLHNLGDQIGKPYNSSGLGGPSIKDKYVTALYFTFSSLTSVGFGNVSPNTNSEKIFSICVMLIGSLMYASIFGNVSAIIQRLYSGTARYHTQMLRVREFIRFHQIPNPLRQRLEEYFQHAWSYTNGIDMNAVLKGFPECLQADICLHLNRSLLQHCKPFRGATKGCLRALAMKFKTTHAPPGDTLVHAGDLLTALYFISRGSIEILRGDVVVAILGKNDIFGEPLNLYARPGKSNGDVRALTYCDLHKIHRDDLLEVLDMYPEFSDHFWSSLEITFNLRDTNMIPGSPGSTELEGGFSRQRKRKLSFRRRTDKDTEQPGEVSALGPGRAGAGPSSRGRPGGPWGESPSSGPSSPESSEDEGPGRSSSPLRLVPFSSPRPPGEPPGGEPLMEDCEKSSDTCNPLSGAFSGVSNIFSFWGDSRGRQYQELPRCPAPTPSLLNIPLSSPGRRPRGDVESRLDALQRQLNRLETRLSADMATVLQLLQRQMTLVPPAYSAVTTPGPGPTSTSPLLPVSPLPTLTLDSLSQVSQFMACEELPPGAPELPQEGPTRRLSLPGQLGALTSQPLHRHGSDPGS
- Assay Method Text: Inhibition activity test on hERG ion channels in HEK293 cells (cardiac safety, patch clamp)
Recorded Endpoint: pIC50
Scale for pIC50: -log10 of concentration given in mol/L; no unit attached.

input: Give pIC50 for the following compound: Cc1cc(F)ccc1Oc1cc(C(F)(F)F)c(Cl)cc1C(=O)Nc1ccc(F)c(OC[C@H](O)CNC(=O)CO)c1 [Example 117]
output: 5.22

input: Give pIC50 for the following compound: Cc1cc(F)ccc1Oc1cc(C(F)(F)F)ccc1C(=O)Nc1ccn(COP(=O)(O)O)c(=O)c1 [VX-150, reference compound]
output: 5.15

input: Give pIC50 for the following compound: Cc1cc(F)ccc1Oc1cc(C(F)(F)F)c(Cl)cc1C(=O)Nc1ccnc(OC[C@H](O)CO)c1 [Example 114]
output: 4.65
